# assayed_target: BACE1 in primary mouse cortical neurons (mouse, UniProt P56818 46-501)
# Sequence (P56818 46-501): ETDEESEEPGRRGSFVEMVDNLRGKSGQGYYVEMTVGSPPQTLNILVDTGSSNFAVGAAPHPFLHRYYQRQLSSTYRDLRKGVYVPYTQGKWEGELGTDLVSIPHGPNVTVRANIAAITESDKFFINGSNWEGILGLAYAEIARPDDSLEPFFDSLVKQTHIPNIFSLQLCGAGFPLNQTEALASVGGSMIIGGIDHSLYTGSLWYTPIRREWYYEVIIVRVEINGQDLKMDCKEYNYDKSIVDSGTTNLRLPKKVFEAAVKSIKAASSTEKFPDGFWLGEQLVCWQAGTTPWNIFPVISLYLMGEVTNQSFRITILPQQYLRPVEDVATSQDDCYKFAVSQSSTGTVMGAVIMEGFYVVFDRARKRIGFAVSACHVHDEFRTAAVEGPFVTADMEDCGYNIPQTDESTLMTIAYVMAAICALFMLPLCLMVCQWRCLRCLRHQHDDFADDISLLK
# experimental_protocol: cell-based or functional assay
quantity: maximal % inhibition of Abeta x-40 (%)
The figure you give is taken to be in %; do not add the unit.

Please review the entries below; each comes with its answer.
[
  {
    "binder": "5536 (antibody, V domains shown, anti-BACE1 IgG) VH: QVQLVQSGAEVKKPGSSVKVSCKASGGTFSSYAISWVRQAPGQGLEWMGSIIPIFGTANYAQKFQGRVTITADESTSTAYMELSSLRSEDTAVYYCARSGGTKYGMLDVWGQGTMVTVSS VL: EIVMTQSPATLSVSPGERATLSCRASQSVGSNLAWYQQKPGQAPRLLIYGASTRATGIPARFSGSGSGTEFTLTISSLQSEDFAVYYCQQSYLWPPRTFGGGTKVEIK",
    "maximal % inhibition of Abeta x-40 (%)": 84
  },
  {
    "binder": "5894 (antibody, V domains shown, anti-BACE1 IgG) VH: QVQLVQSGAEVKKPGSSVKVSCKASGGTFSGYAISWVRQAPGQGLEWMGNIIPGFGTANYAQKFQGRVTITADESTSTAYMELSSLRSEDTAVYYCARSGGTKYGMLDVWGQGTMVTVSS VL: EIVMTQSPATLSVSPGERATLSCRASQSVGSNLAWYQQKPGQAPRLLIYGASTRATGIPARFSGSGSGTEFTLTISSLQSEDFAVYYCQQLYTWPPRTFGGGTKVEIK",
    "maximal % inhibition of Abeta x-40 (%)": 78
  },
  {
    "binder": "5902 (antibody, V domains shown) VH: QLQLQESGPGLVKPSETLSLTCTVSGGSISSSSYYWGWIRQPPGKGLEWIGSIYRSGSTWYNPSLKSRVTISVDTSKNQFSLKLSSVTAADTAVYYCARVGHGISYFDLWGRGTLVTVSS VL: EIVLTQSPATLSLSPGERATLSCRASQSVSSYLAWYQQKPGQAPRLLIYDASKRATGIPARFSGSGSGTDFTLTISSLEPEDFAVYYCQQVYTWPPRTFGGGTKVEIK",
    "maximal % inhibition of Abeta x-40 (%)": 67
  },
  {
    "binder": "5644 (antibody, V domains shown, anti-BACE1 IgG) VH: QLQLQESGPGLVKPSETLSLTCTVSGGSISSSSYYWGWIRQPPGKGLEWIGSIYYSGSTYYNPSLKSRVTISVDTSKNQFSLKLSSVTAADTAVYYCARVGHGISYFDLWGRGTLVTVSS VL: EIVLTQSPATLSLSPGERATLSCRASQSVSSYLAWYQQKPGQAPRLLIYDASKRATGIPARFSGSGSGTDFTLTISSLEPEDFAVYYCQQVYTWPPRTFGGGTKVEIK",
    "maximal % inhibition of Abeta x-40 (%)": 72
  }
]

Below: the item to evaluate.
Dear colleague, please send me the reported maximal % inhibition of Abeta x-40 for 5891 (antibody, V domains shown, anti-BACE1 IgG) VH: QVQLVQSGAEVKKPGSSVKVSCKASGGTFSSYAISWVRQAPGQGLEWMGNIIPIFGPANYAQKFQGRVTITADESTSTAYMELSSLRSEDTAVYYCARSGGTKYGMLDVWGQGTMVTVSS VL: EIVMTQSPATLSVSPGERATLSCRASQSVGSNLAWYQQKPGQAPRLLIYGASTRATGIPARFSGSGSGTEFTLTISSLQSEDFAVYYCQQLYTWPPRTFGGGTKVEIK when you can. 78

Source: patent US20180057604A1
